target: human melanocortin 1 receptor (human, UniProt Q01726 1-317); assay: cell-based or functional assay
Sequence (Q01726 whole entry): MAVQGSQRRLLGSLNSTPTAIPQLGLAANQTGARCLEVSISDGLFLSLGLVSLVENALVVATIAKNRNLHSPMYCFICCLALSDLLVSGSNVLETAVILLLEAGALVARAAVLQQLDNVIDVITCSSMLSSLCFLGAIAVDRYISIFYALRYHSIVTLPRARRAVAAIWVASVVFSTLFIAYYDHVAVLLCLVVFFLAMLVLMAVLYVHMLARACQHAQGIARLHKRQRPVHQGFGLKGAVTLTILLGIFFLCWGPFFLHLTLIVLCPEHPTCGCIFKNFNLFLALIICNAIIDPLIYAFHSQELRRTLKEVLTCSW
Positions of bridges follow the written chain, without caps; N, C: chain ends. Non-standard residues stand in square brackets, D forms with d. Cit = NC(=O)NCCC[C@H](N)C(=O)O
MC1R cAMP EC50 for assorted binders
Report only the number, with the unit nM understood.

- BINDER: "cyclo(C[dK]H[dF]HWC[dK]H[dF]HW) (disulfide 1-7; SMILES NCCCC[C@H]1NC(=O)[C@@H]2CSSC[C@H](NC(=O)[C@H](Cc3c[nH]c4ccccc34)NC(=O)[C@H](Cc3c[nH]cn3)NC(=O)[C@@H](Cc3ccccc3)NC(=O)[C@H](Cc3c[nH]cn3)NC1=O)C(=O)N[C@H](CCCCN)C(=O)N[C@@H](Cc1c[nH]cn1)C(=O)N[C@H](Cc1ccccc1)C(=O)N[C@@H](Cc1c[nH]cn1)C(=O)N[C@@H](Cc1c[nH]c3ccccc13)C(=O)N2) [Chem. 86]"
  UNIT_NAME: "nM"
  MC1R cAMP EC50: 147
- BINDER: "cyclo(CKH[dF][Cit]WCKH[dF][Cit]W) (disulfide 1-7; SMILES NCCCC[C@@H]1NC(=O)[C@@H]2CSSC[C@H](NC(=O)[C@H](Cc3c[nH]c4ccccc34)NC(=O)[C@H](CCCNC(N)=O)NC(=O)[C@@H](Cc3ccccc3)NC(=O)[C@H](Cc3c[nH]cn3)NC1=O)C(=O)N[C@@H](CCCCN)C(=O)N[C@@H](Cc1c[nH]cn1)C(=O)N[C@H](Cc1ccccc1)C(=O)N[C@@H](CCCNC(N)=O)C(=O)N[C@@H](Cc1c[nH]c3ccccc13)C(=O)N2, also called c[c[Cys-Lys-His-D-Phe-Cit-Trp-Cys]-Lys-His-D-Phe-Cit-Trp]) [Chem. 55]"
  UNIT_NAME: "nM"
  MC1R cAMP EC50: 4.14

From here, focus on the item given below.
Quick note, MC1R cAMP EC50 for XAHFRWCAHXRW (Pen 1; D-Phe 4, 10; disulphide Pen1-Cys7; head-to-tail amide Pen1-Trp12, also called c[c[Pen-Ala-His-D-Phe-Arg-Trp-Cys]-Ala-His-D-Phe-Arg-Trp]) [Chem. 63] landed at 0.84
